Tested on: DeltatarO mutant
Assay: S. aureus survival, RN4220 and DeltatarO strains – OD600, teichoic acid synthesis inhibitors, primary screen (AID 463173)
Conditions: S. aureus RN4220 wild type/DeltatarO growth, OD600, 18 h, stronger effect = lower value, screened at 18.75 µg/mL (by protocol)
The campaign covered roughly 52,000 compounds. About 4,300 (8.3%) were called active. Only a selection was taken, and actives are over-represented in it overall.
Readout Label: survival

Example entries begin here.
Compound	Assay Target	survival
Cc1cccc(-c2nc3c4ccccc4nc(NCc4ccc(Cl)cc4)n3n2)c1	DeltatarO mutant	44% (active)
COc1ccc(NC(=O)c2ccc(NC(=O)CCS(=O)(=O)c3cccs3)cc2)cc1OC	DeltatarO mutant	50% (inactive)
Cc1c(C(=O)Nc2ccccc2Cl)sc2ncnc(N(C)C3CCCCC3)c12	DeltatarO mutant	92% (inactive)
CCNC(=O)NC1(C(=O)N2CCC(Cc3ccccc3)CC2)CCCCC1	DeltatarO mutant	87% (inactive)
Cc1ccc(CNC(=O)c2sc3ncnc(N(C)C4CCCCC4)c3c2C)cc1	DeltatarO mutant	91% (inactive)

Name the recorded survival of the item CS(=O)(=O)N(CC(=O)NCc1ccncc1)c1ccccc1 in your answer.
85% (inactive)

Name the recorded survival of the item CCOC(=O)CC(NC(=O)Cn1nnc(-c2ccccc2F)n1)c1ccccc1Cl (configuration not stated) in your answer.
77% (inactive)

Name the recorded survival of the item CCC(=O)N1c2ccc(S(=O)(=O)CCC(=O)N3CCN(c4cc(C)ccc4C)CC3)cc2CC1C (configuration not stated) in your answer.
85% (inactive)

Name the recorded survival of the item COc1ccc(-c2noc(CN(C(=O)COc3cc(C)c(Br)c(C)c3)C(C)C)n2)cc1 in your answer.
31% (active)

* * *

System: DeltatarO mutant
Assay: S. aureus survival, RN4220 and DeltatarO strains – OD600, teichoic acid synthesis inhibitors, primary screen (AID 463173)
Conditions: S. aureus RN4220 wild type/DeltatarO growth, OD600, 18 h, stronger effect = lower value, screened at 18.75 µg/mL (by protocol)
The campaign covered roughly 52,000 compounds. About 4,300 (8.3%) were called active. This excerpt belongs to a sample that is enriched for actives.
Readout Label: survival (%)
// return numeric value only (unit: %, not printed)

Molecule	Readout Label	Uom	Value Reported
Cc1ccc(NC(=O)CCCc2nc(-c3ccco3)no2)cc1Cl	survival	%	80
O=C(COc1ccccc1)Nc1sc2c(c1C(=O)Nc1ccccc1Cl)CCCCC2	survival	%	56
O=C(COc1ccccc1F)Nc1ccc2nc(SCC(=O)N3CCOCC3)sc2c1	survival	%	79
COCc1cc(C)nc2sc3c(c12)NC(c1ccc(O)cc1)N(c1ccc(OC)cc1)C3=O (stereo unspecified)	survival	%	76
O=C(COc1ccccc1)Nc1sc2c(c1C(=O)Nc1ccccc1)CCCCC2	survival	%	85

Name the recorded survival of the item CCCN(CCC)CC(O)Cn1cc(/C=C/C(=O)c2ccc(C)cc2)c2ccccc21 (stereo unspecified) in your answer.
-2

Name the recorded survival of the item Cc1ccc(C(=O)c2cn(Cc3ccccc3)c3ccccc3c2=O)cc1 in your answer.
75

Name the recorded survival of the item O=C(CCOc1ccccc1)N(Cc1cccnc1)c1nc2c(F)cc(F)cc2s1 in your answer.
97

* * *

Test system: DeltatarO mutant
Experiment: S. aureus survival, RN4220 and DeltatarO strains – OD600, teichoic acid synthesis inhibitors, primary screen (AID 463173)
Settings: S. aureus RN4220 wild type/DeltatarO growth, OD600, 18 h, stronger effect = lower value, screened at 18.75 µg/mL (by protocol)
Out of some 52,000 compounds screened, about 4,300 (8.3%) were called active. Only a selection was taken, and actives are over-represented in it overall.
Readout Label: survival (%)
// return numeric value only (unit: %, not printed)

Example entries begin here.
Molecule	survival / %
CN(c1ccccc1)S(=O)(=O)c1ccc(NC(=O)c2nc(S(C)(=O)=O)ncc2Cl)cc1	-1
CCOC(=O)Cc1nnc2c(Nc3cc(C)ccc3C)nc3nonc3n12	101
Cc1ccccc1CSc1nc2cccnc2n1Cc1ccc(C(=O)NCCc2cccs2)cc1	47
COCCCNC(=O)c1ccc(CSc2nc3cccnc3n2Cc2ccc(OC)cc2)cc1	107
COc1ccc(Cn2c(SCc3ccc(C(=O)NCc4ccc(C)cc4)cc3)nc3cccnc32)cc1	58

Name the recorded survival of the item CN1CCN(CC(=O)NCCc2ccc(F)cc2)CC1 in your answer.
83

Name the recorded survival of the item Cc1ccccc1CNC(=O)c1ccc(Cn2c(SCc3ccccc3)nc3cccnc32)cc1 in your answer.
0

* * *

Tested on: DeltatarO mutant
Test: S. aureus survival, RN4220 and DeltatarO strains – OD600, teichoic acid synthesis inhibitors, primary screen (AID 463173)
Conditions: S. aureus RN4220 wild type/DeltatarO growth, OD600, 18 h, screened at 18.75 µg/mL (by protocol)
The whole screen tested about 52,000 compounds, of which about 4,300 (8.3%) were called active. No stated cut-off is given here; in the data, active means survival mostly below about 52% (no sharp cut-off); inactive means mostly above about 56%. The entries come from a sample that favours actives as a whole.
Give your call using only these classes: active, inactive

Solved cases below.
Compound	Assay Target	Class Label
Cc1cc(C)c2oc(-c3ccc(NC(=O)c4cc(Br)ccc4Cl)cc3)nc2c1	DeltatarO mutant	inactive
CC1(C)Oc2ccc3ccc(=O)oc3c2-c2cn[nH]c21	DeltatarO mutant	inactive
COC(=O)C1CCN(C(c2ccccc2)c2sc3nc(-c4ccco4)nn3c2O)CC1 (stereo not given)	DeltatarO mutant	inactive

Can you look up the reported call for O=C(Nc1c(C(=O)Nc2ccccc2F)oc2ccccc12)c1cc2ccccc2o1 for me?
active

Can you look up the reported call for CCNC(=O)c1c(NC(=O)Cc2coc3ccc(CC)cc23)sc2c1CCCC2 for me?
inactive

Can you look up the reported call for O=C(Nc1cc(-c2nc3cc(Cl)ccc3o2)ccc1Cl)c1cccs1 for me?
inactive

Can you look up the reported call for CC(C)Oc1ccc(NC(=O)c2cc3ccccc3o2)cc1 for me?
active

Can you look up the reported call for Cc1cc(C)cc(C(=O)Nc2c(C(=O)Nc3ccccc3F)oc3ccccc23)c1 for me?
inactive

Can you look up the reported call for O=C(O)c1ccc(NC(=O)c2cc3ccccc3o2)cc1 for me?
inactive

Can you look up the reported call for CCOC(=O)C1CCN(C(=O)Cn2ncc3c4ccccc4n(Cc4ccccc4F)c3c2=O)CC1 for me?
inactive

* * *

Tested on: DeltatarO mutant
Assay: S. aureus survival, RN4220 and DeltatarO strains – OD600, teichoic acid synthesis inhibitors, primary screen (AID 463173)
Conditions: S. aureus RN4220 wild type/DeltatarO growth, OD600, 18 h, stronger effect = lower value, screened at 18.75 µg/mL (by protocol)
Among all 52,000 compounds or so, about 4,300 (8.3%) were called active. Shown is part of a subset that was picked to be rich in actives.
Recorded measurements of survival, one per entry
// return numeric value only (unit: %, not printed)

Example entries begin here.
Molecule	Value Reported
COc1ccc(OC)c(CCNC(=O)CCCn2c(=O)c3cccn3c3ccc(F)cc32)c1	88
COC(=O)c1ccccc1NC(=O)c1cc2nc(-c3ccc(OC)cc3)cc(C(F)(F)F)n2n1	36
O=C(NCCc1ccc(F)cc1)C(=O)NCC(c1ccc2c(c1)OCO2)N1CCOCC1 (stereo not given)	74
COc1ccc(-c2cc(C(F)(F)F)n3nc(C(=O)Nc4cc(C(F)(F)F)ccc4Cl)cc3n2)cc1OC	152
O=C(NCc1ccccc1)C(=O)Nc1ccc2nc3n(c(=O)c2c1)CCCCC3	88
COC(=O)c1ccc(C(=O)OC)c(NC(=O)c2cc3nc(-c4ccc(C)cc4)cc(C(F)(F)F)n3n2)c1	83
COc1ccc(OC)c(CNC(=O)CCn2c(=O)c3cccn3c3ccc(F)cc32)c1	58
O=C(NC1CCCCC1)c1ccc(CSc2nc3cccnc3n2Cc2cccc(F)c2)cc1	83
Cc1cc(C)cc(NC(=O)c2sc3nc4n(c(=O)c3c2C)N=C(c2ccccc2)CS4)c1	69
CC1CCN(C(=O)c2ccc3c(c2)N(Cc2ccccc2F)C(=O)c2ccccc2S3(=O)=O)CC1	80

We now examine a further molecule.
Under DeltatarO mutant: report survival of CC(=O)N1CCc2c(sc3c2c(=O)n(-c2ccccc2)c(=O)n3CC(=O)Nc2ccccc2)C1 .
91

* * *

System: DeltatarO mutant
Assay: S. aureus survival, RN4220 and DeltatarO strains – OD600, teichoic acid synthesis inhibitors, primary screen (AID 463173)
Conditions: S. aureus RN4220 wild type/DeltatarO growth, OD600, 18 h, stronger effect = lower value, screened at 18.75 µg/mL (by protocol)
In all, about 52,000 compounds went through this assay and about 4,300 (8.3%) were called active. The sample as a whole holds a higher share of actives than the screen did.
Readout Label: survival

Molecule	survival
CCOc1ccc(CC(=O)NCCc2csc(-c3ccc(C)cc3)n2)cc1	88% (inactive)
COc1cc(/C=C/c2nc(C#N)c(N3CCCCC3)o2)cc(OC)c1OC	89% (inactive)
CCOc1ccccc1NC(=O)Cn1c(=O)n(Cc2nc(C)no2)c(=O)c2ccccc21	81% (inactive)
CCCCNC(=O)CC1N=C2c3ccccc3N=C(SCC(=O)NCc3ccccc3Cl)N2C1=O (stereo not given)	72% (inactive)
CCOC(=O)COc1ccc(F)cc1C(=O)c1ccn2nc(-c3ccc(C)cc3)cc2n1	80% (inactive)

Under DeltatarO mutant: report survival of CCCc1cc(=O)[nH]c(Nc2cc(Cl)cc(Cl)c2)n1 .
6% (active)

Under DeltatarO mutant: report survival of Cc1ccc(-c2nnc(Nc3ccc(O)cc3)c3ccccc23)cc1S(=O)(=O)NCC1CCCO1 (stereo not given) .
93% (inactive)

Under DeltatarO mutant: report survival of CCCc1cc(=O)[nH]c(Nc2cccc(Cl)c2Cl)n1 .
68% (inactive)

Under DeltatarO mutant: report survival of CCOc1ccc(CNC(=O)C(C)n2ncn3cccc3c2=O)cc1 (stereo not given) .
69% (inactive)

Under DeltatarO mutant: report survival of O=C(OCc1ccccc1Cl)c1ccc(-c2nnn(Cc3ccccc3)n2)cc1 .
52% (inactive)
